The values you see were collected from patent US20120277209A1.

biological target: PDE10 (UniProt Q9Y233); assay: PDE10 enzyme inhibition, IMAP TR-FRET assay (MPDE10A7 Enzyme Activity and Inhibition); assay type: biochemical; settings: PDE10 enzyme inhibition; average IC50 data for each compound; read-out: Average IC50
// thresholds for IC50 classes: small value: < 1 nM; mid value: ≥ 1 nM and < 5 nM; large value: ≥ 5 nM

- compound: "Cc1noc([C@@H]2CCN(c3nccnc3Oc3ccc(C(=O)c4nc5ccccc5[nH]4)cc3)C2)n1 (stereo in doubt)"
  labelClass: "mid value"
- compound: "O=C(c1ccc(Oc2nccnc2OCC(F)(F)F)cc1)c1nc2ccccc2[nH]1 [drawing 847]"
  labelClass: "large value"
- compound: "COC(=O)N1CCC(c2nccnc2Oc2ccc(C(=O)c3nc4ccccc4[nH]3)cc2)CC1 [drawing 971]"
  labelClass: "small value"
- compound: "c1ccc2sc(Nc3ccc(Oc4nccnc4C4CCOCC4)cc3)nc2c1 [drawing 864]"
  labelClass: "small value"
- compound: "Cc1ccc(-c2nccnc2Oc2ccc(Nc3nc4ccccc4s3)cc2)cn1 [drawing 764]"
  labelClass: "large value"

Consider the additional compound presented here.
Exercise: Any idea which band OC1(c2nccnc2Oc2ccc(Nc3nc4ccccc4s3)cc2)CCOCC1 [drawing 902] is in?
Solution: small value
